Molecular target: UniProtKB O14842
Sequence (O14842 whole entry): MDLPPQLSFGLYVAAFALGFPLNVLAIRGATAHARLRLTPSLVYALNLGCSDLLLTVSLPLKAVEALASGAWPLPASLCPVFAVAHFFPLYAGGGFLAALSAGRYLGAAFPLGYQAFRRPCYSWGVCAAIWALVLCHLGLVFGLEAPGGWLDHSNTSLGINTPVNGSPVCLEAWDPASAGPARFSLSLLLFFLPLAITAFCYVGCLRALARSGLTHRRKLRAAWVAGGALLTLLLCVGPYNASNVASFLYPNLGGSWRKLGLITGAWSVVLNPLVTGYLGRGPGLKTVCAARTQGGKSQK
Experiment: Agonist activity at human GPR40 expressed in CHO cells by FLIPR calcium flux assay relative to TAK-875
Format: functional, cell-based
RESULT_TYPE: Emax (%)

CCCOc1cc(COc2ccc(CCC(=O)O)c(F)c2)cc(-c2c(C)noc2C)c1 102
Cc1noc(C)c1-c1cc(COc2ccc(CCC(=O)O)c(F)c2)ccc1F 102
Cc1noc(C)c1-c1cc(COc2ccc(CCC(=O)O)c(F)c2)cc(OC(C)C)c1 105
CCOc1cc(COc2ccc(CCC(=O)O)c(F)c2)cc(-c2c(C)noc2C)c1 101
Cc1noc(C)c1-c1cc(Cl)cc(COc2ccc(CCC(=O)O)c(F)c2)c1 98.5
Cc1noc(C)c1-c1cccc(COc2ccc(CCC(=O)O)c(F)c2)n1 98.1
Cc1noc(C)c1-c1ccnc(COc2ccc(CCC(=O)O)c(F)c2)c1 85
COc1ccc(COc2ccc(CCC(=O)O)c(F)c2)cc1-c1c(C)noc1C 108
Cc1noc(C)c1-c1cccc(COc2ccc(CCC(=O)O)c(F)c2)c1 104
Cc1noc(C)c1-c1cc(COc2ccc(CCC(=O)O)c(F)c2)ccn1 108
